Kindly state IC50 for each of the entries shown.
target: DNA gyrase subunit B (Mycobacterium smegmatis); assay: Inhibition of Mycobacterium smegmatis GyrB ATPase activity expressed in Escherichia coli BL21 (DE3) pLysS cells after 100 mins by inorganic phosphate release detection based malachite green reagent assay
Sequence (P0C559 whole entry): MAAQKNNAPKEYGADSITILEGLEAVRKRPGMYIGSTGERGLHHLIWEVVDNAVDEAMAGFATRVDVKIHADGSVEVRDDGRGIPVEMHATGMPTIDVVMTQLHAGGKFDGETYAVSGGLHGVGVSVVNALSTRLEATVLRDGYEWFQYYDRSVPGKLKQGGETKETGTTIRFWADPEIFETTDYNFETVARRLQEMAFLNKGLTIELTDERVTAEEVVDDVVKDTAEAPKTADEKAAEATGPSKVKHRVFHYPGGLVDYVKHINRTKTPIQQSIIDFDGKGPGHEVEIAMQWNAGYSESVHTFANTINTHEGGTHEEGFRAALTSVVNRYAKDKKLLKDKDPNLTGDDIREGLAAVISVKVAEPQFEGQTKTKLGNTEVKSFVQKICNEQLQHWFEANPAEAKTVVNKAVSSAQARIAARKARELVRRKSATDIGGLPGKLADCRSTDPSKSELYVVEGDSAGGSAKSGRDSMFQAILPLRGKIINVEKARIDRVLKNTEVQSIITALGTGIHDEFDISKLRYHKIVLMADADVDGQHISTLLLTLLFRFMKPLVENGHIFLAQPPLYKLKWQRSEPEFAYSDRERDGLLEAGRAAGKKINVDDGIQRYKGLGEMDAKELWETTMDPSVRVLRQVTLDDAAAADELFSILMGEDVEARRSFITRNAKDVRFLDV
Write it as a number; the unit µM goes unstated.

Problem: Annotate the compound COc1ccc(NC(=S)NC2CCN(c3cc(C)nc4ccc(C(F)(F)F)cc34)CC2)cc1 with its measured IC50.
Solution: 32.6

Problem: Annotate the compound Cc1cc(N2CCC(NC(=O)Nc3ccc([N+](=O)[O-])cc3)CC2)c2ccccc2n1 with its measured IC50.
Solution: 17

Problem: Annotate the compound Cc1cc(N2CCC(NC(=S)Nc3ccc(F)cc3)CC2)c2cc(F)ccc2n1 with its measured IC50.
Solution: 45.9

Problem: Annotate the compound Cc1ccc(NC(=S)NC2CCN(c3cc(C)nc4ccccc34)CC2)cc1 with its measured IC50.
Solution: 7.26

Problem: Annotate the compound COc1ccc2nc(C)cc(N3CCC(NC(=S)Nc4ccc(F)cc4)CC3)c2c1 with its measured IC50.
Solution: 8.7

Problem: Annotate the compound COc1ccc2nc(C)cc(N3CCC(NC(=O)Nc4ccccc4)CC3)c2c1 with its measured IC50.
Solution: 12.2

Problem: Annotate the compound COc1ccc(NC(=O)NC2CCN(c3cc(C)nc4ccc(F)cc34)CC2)cc1 with its measured IC50.
Solution: 10.1

Problem: Annotate the compound Cc1cc(N2CCC(NC(=S)Nc3ccc([N+](=O)[O-])cc3)CC2)c2cc(F)ccc2n1 with its measured IC50.
Solution: 56.1

Problem: Annotate the compound COc1ccc2nc(C)cc(N3CCC(NC(=O)Nc4ccc(Cl)cc4)CC3)c2c1 with its measured IC50.
Solution: 16.2

Problem: Annotate the compound Cc1cc(N2CCC(NC(=S)Nc3ccccc3)CC2)c2cc(C(F)(F)F)ccc2n1 with its measured IC50.
Solution: 39

Problem: Annotate the compound COc1ccc2nc(C)cc(N3CCC(NC(=S)Nc4ccc(C)cc4)CC3)c2c1 with its measured IC50.
Solution: 11.1

Problem: Annotate the compound Cc1cc(N2CCC(NC(=S)Nc3ccc(F)cc3)CC2)c2ccccc2n1 with its measured IC50.
Solution: 29.8
